The origin of these recorded values is ChEMBL document CHEMBL3232846.

Assignment: determine reported Ratio IC50 for the given molecules.
experiment: Selectivity ratio of IC50 for equine serum BChE to IC50 for electric eel AChE
Lab note: record the figure alone, no unit after it.

I am curious: what Ratio IC50 value has been reported for O=C(C1CC(c2ccccc2)NC12C(=O)Nc1ccccc12)N1C/C(=C\c2ccc(F)cc2)C(=O)C2(C1)C(c1ccc(F)cc1)C(c1ccccc1)NC21C(=O)Nc2ccccc21 (racemic) ?
0.66

I am curious: what Ratio IC50 value has been reported for C=CC(=O)N1C/C(=C\c2ccc(Cl)cc2Cl)C(=O)C2(C1)C(c1ccc(Cl)cc1Cl)C(c1ccccc1)NC21C(=O)Nc2ccccc21 (racemic) ?
4.4

I am curious: what Ratio IC50 value has been reported for C=CC(=O)N1C/C(=C\c2ccccc2C)C(=O)C2(C1)C(c1ccccc1C)C(c1ccccc1)NC21C(=O)Nc2ccccc21 (racemic) ?
2.13

I am curious: what Ratio IC50 value has been reported for O=C(C1CC(c2ccccc2)NC12C(=O)Nc1ccccc12)N1C/C(=C\c2cccc3ccccc23)C(=O)C2(C1)C(c1cccc3ccccc13)C(c1ccccc1)NC21C(=O)Nc2ccccc21 (racemic) ?
2.08

I am curious: what Ratio IC50 value has been reported for O=C(C1CC(c2ccccc2)NC12C(=O)Nc1ccccc12)N1C/C(=C\c2ccc(Cl)cc2Cl)C(=O)C2(C1)C(c1ccc(Cl)cc1Cl)C(c1ccccc1)NC21C(=O)Nc2ccccc21 (racemic) ?
3.06

I am curious: what Ratio IC50 value has been reported for C=CC(=O)N1C/C(=C\c2ccccc2F)C(=O)C2(C1)C(c1ccccc1F)C(c1ccccc1)NC21C(=O)Nc2ccccc21 (racemic) ?
5.18

I am curious: what Ratio IC50 value has been reported for Cc1ccccc1/C=C1\CN(C(=O)C2CC(c3ccccc3)NC23C(=O)Nc2ccccc23)CC2(C1=O)C(c1ccccc1C)C(c1ccccc1)NC21C(=O)Nc2ccccc21 (racemic) ?
0.95

I am curious: what Ratio IC50 value has been reported for C=CC(=O)N1C/C(=C\c2ccc(Cl)cc2)C(=O)C2(C1)C(c1ccc(Cl)cc1)C(c1ccccc1)NC21C(=O)Nc2ccccc21 (racemic) ?
1.9

I am curious: what Ratio IC50 value has been reported for O=C(C1CC(c2ccccc2)NC12C(=O)Nc1ccccc12)N1C/C(=C\c2ccccc2)C(=O)C2(C1)C(c1ccccc1)C(c1ccccc1)NC21C(=O)Nc2ccccc21 (racemic) ?
1.27

I am curious: what Ratio IC50 value has been reported for C=CC(=O)N1C/C(=C\c2ccccc2Cl)C(=O)C2(C1)C(c1ccccc1Cl)C(c1ccccc1)NC21C(=O)Nc2ccccc21 (racemic) ?
13.2
